Test system: MCF7
MEASUREMENT PROTOCOL: NCI tumour cell line growth inhibition, 48 h
The source made the active and inactive calls. Cut-off read from the data, not from the text of the source: active = GI50 up to about 1.1 µM and inactive = higher.
REPORTED ENDPOINT: GI50

Worked cases, answers included:
compound=CCOC(=O)CNC(=O)N(CC)C12CC3CC(CC(C3)C1)C2 observed="148 µM (inactive)"
compound="COC(=O)C1OC(O[C@H]2CC[C@]3(C)[C@H]4CC=C5[C@@H]6CC(C)(C)CC[C@]6(C(=O)OC)CC[C@@]5(C)[C@]4(C)CC[C@H]3C2(C)C)C(O)C(O)C1O (stereo not given in full)" observed="12.5 µM (inactive)"
compound=N#Cc1sc2c(c1OC(=O)c1ccco1)c(=O)n(-c1ccccc1)c(=S)n2-c1ccccc1 observed="31.2 µM (inactive)"
compound=O=C(NCCCNC(=O)c1ccc2c(O)c(O)ccc2c1)c1ccc2c(O)c(O)ccc2c1 observed="10.5 µM (inactive)"

We next turn to a different compound, shown below.
Which GI50 value belongs to Cc1csc2c1-n1cccc1C2=O ?
> 100 µM (inactive)

These measurements were taken from ChEMBL document CHEMBL1201862.
